- test_system: human RXFP1 (Homo sapiens)
- Sequence (Q9HBX9 whole entry): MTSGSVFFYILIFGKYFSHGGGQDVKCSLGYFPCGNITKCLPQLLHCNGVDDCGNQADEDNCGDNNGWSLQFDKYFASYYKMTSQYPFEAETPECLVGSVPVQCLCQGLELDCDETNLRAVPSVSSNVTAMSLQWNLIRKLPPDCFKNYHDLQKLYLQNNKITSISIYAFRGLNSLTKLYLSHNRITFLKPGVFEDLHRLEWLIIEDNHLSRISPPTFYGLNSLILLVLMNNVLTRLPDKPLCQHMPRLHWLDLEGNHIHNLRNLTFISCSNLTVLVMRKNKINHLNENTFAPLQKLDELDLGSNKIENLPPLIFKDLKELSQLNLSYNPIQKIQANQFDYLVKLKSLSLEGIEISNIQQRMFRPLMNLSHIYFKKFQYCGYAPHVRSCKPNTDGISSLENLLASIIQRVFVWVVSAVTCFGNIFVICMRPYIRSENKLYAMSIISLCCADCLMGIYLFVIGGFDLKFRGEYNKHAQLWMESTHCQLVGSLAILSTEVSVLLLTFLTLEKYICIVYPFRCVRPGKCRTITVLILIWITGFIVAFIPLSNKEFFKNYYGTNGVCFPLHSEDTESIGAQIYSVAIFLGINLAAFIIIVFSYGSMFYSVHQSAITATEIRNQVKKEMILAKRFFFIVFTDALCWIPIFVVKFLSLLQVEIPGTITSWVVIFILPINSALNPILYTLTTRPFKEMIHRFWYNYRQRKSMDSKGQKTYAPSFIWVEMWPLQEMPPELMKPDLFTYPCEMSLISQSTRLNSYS
- assay_method_text: RXFP1 Hu cAMP (Test A)
- Type: cell-based
- Set-up: expressed in transfected cells; host or cells: Jump-In T-REx CHO-K1 cells (ThermoFisher), induced with 10 ng/ml doxycycline for 24 h
- test_parameters: RXFP1 Hu cAMP
experimental_endpoint: Test A Sinf (%)

COc1cc(F)c(O[C@H]2CC[C@@](C)(c3noc(=O)[nH]3)CC2)cc1C(=O)N[C@@H]1[C@H]2CC[C@H](C2)[C@@H]1C(=O)NCC1(C)CCC1 [Example 418]
100
COc1cc(F)c(-c2cnc(CCC(=O)O)cn2)cc1C(=O)N[C@@H]1[C@@H]2CC[C@@H](C2)[C@@H]1C(=O)Nc1cccc(S(=O)(=O)C(F)(F)F)c1 (racemic) [Example 324]
101
COc1cc(F)c(O[C@H]2CC[C@@H](C(=O)O)CC2)cc1C(=O)N[C@@H]1[C@H]2CC[C@H](C2)[C@@H]1C(=O)NC1CCC1 [Example 177]
100
COc1cc(F)c(O[C@H]2CC[C@@](C)(C(=O)O)CC2)cc1C(=O)N[C@@H]1[C@H]2CC[C@H](C2)[C@@H]1C(=O)NCC1CC(F)(F)C1 [Example 620]
93
COc1cc(F)c(O[C@H]2CC[C@@H](C(=O)O)CC2)cc1C(=O)N[C@@H]1[C@@H]2C[C@@H]([C@@H](O)[C@H]2O)[C@@H]1C(=O)Nc1cccc(S(=O)(=O)C(F)(F)F)c1 [Example 494]
90
COc1cc(F)c(-c2ccc([C@@H]3C[C@H]3C(=O)O)nc2)cc1C(=O)N[C@@H]1[C@H]2CC[C@H](C2)[C@@H]1C(=O)Nc1cccc(S(=O)(=O)C(F)(F)F)c1 (single isomer, unassigned) [Example 262]
95
COc1cc(F)c(O[C@H]2CC[C@@](C)(C(=O)O)CC2)cc1C(=O)N[C@H]1[C@@H]2CC[C@@H](C2)[C@H]1C(=O)Nc1ccc(F)c(S(F)(F)(F)(F)F)c1 [Example 206]
99
COCc1cc(OC)c(C(=O)N[C@@H]2[C@H]3CC[C@H](C3)[C@@H]2C(=O)NCC2(C)CCC2)cc1O[C@H]1CC[C@@](C)(C(=O)O)CC1 [Example 402]
131
COc1cc(Br)c(O[C@H]2CC[C@@H](C(=O)O)CC2)cc1C(=O)N[C@@H]1[C@H]2CC[C@H](C2)[C@@H]1C(=O)Nc1cccc(S(=O)(=O)C(F)(F)F)c1 [Example 464]
104
COc1cc(F)c(OC2CCC(O)(C(=O)O)CC2)cc1C(=O)N[C@@H]1[C@@H]2CC[C@@H](C2)[C@@H]1C(=O)Nc1cccc(S(=O)(=O)C(F)(F)F)c1 (relative stereo) [Example 583]
84

###

- test_system: human RXFP1 (Homo sapiens)
- assay_method_text: RXFP1 Hu cAMP (Test A)
- Type: cell-based
- Set-up: expressed in transfected cells; host or cells: Jump-In T-REx CHO-K1 cells (ThermoFisher), induced with 10 ng/ml doxycycline for 24 h
- test_parameters: RXFP1 Hu cAMP
Readings of Test A Sinf for the listed molecules
experimental_endpoint: Test A Sinf (%)

COc1cc(F)c(-c2cnc(CCC(=O)O)cn2)cc1C(=O)N[C@@H]1[C@H]2CC[C@H](C2)[C@@H]1C(=O)Nc1cccc(S(=O)(=O)C(F)(F)F)c1
102
COc1cc(F)c(-c2cncc(C(=O)O)c2)cc1C(=O)N[C@H]1[C@@H](C(=O)Nc2cccc(S(=O)(=O)C(F)(F)F)c2)[C@@H]2C=C[C@H]1C2 (racemic)
110
COc1cc(F)c(-c2ccc(CCC(N)(CO)CO)c(F)c2)cc1C(=O)N[C@@H]1[C@H]2CC[C@H](C2)[C@@H]1C(=O)Nc1cccc(S(=O)(=O)C(F)(F)F)c1
103
COc1cc(F)c(O[C@H]2CC[C@@H](C(=O)O)CC2)cc1C(=O)N[C@@H]1[C@H]2CC[C@H](C2)[C@@H]1C(=O)Nc1cc(F)c(F)c(F)c1
105
COc1cc(F)c(-c2ncc(CCC(=O)O)s2)cc1C(=O)N[C@@H]1[C@H]2CC[C@H](C2)[C@@H]1C(=O)Nc1cccc(S(=O)(=O)C(F)(F)F)c1
96
COc1cc(F)c(-c2cccc(CC(=O)O)c2)cc1C(=O)N[C@@H]1CCC[C@@H]1C(=O)Nc1cccc(S(=O)(=O)C(F)(F)F)c1
89
COc1cc(F)c(OC2CC(CC(=O)O)C2)cc1C(=O)NC1C2CCC(C2)C1C(=O)Nc1cccc(S(=O)(=O)C(F)(F)F)c1 (stereo not shown)
118
COc1cc(F)c(O[C@H]2CC[C@@](C)(C(=O)O)CC2)cc1C(=O)N[C@@H]1COC[C@@H]1C(=O)Nc1cccc(S(=O)(=O)C(F)(F)F)c1 (relative stereo) [Example 561]
104
COc1cc(F)c(O[C@H]2CC[C@H](S(N)(=O)=O)CC2)cc1C(=O)N[C@@H]1[C@@H]2CC[C@@H](C2)[C@@H]1C(=O)Nc1cccc(S(=O)(=O)C(F)(F)F)c1
125
COc1cc(F)c(O[C@H]2CC[C@@H](C(=O)O)CC2)cc1C(=O)N[C@@H]1[C@H]2CC[C@H](C2)[C@@H]1C(=O)Nc1ccc(Cl)c(C(F)(F)F)c1
110
COc1cc(F)c(-c2ccc(C(=O)O)s2)cc1C(=O)N[C@H]1[C@@H](C(=O)Nc2cccc(S(=O)(=O)C(F)(F)F)c2)[C@@H]2C=C[C@H]1C2 (racemic)
75
COc1cc(F)c(O[C@H]2CC[C@@](C)(C(=O)O)CC2)cc1C(=O)Nc1cc2ccccc2cc1C(=O)NCC1(C)CCC1
143
CCOc1cc(F)c(O[C@H]2CC[C@@](C)(C(=O)O)CC2)cc1C(=O)N[C@@H]1[C@H]2CC[C@H](C2)[C@@H]1C(=O)NC12CC(F)(C1)C2
108
CCC1(CNC(=O)[C@H]2[C@@H]3CC[C@@H](C3)[C@H]2NC(=O)c2cc(O[C@H]3CC[C@@](C)(C(=O)O)CC3)c(C#N)cc2OC)CCC1
115
COc1cc(F)c(O[C@H]2CC[C@@](C)(C(=O)O)CC2)cc1C(=O)N[C@@H]1[C@H]2CC[C@H](C2)[C@@H]1C(=O)NC1CCC1
99
COc1cc(F)c(-c2ccc(S(N)(=O)=O)cc2)cc1C(=O)N[C@@H]1[C@H]2CC[C@H](C2)[C@@H]1C(=O)Nc1cccc(S(=O)(=O)C(F)(F)F)c1
108
CCC(CC)CNC(=O)[C@H]1[C@@H]2CC[C@@H](C2)[C@H]1NC(=O)c1cc(O[C@H]2CC[C@@](C)(C(=O)O)CC2)c(C#N)cc1OC
124
COc1cc(F)c(-c2cc(C(=O)O)cs2)cc1C(=O)N[C@H]1[C@@H](C(=O)Nc2cccc(S(=O)(=O)C(F)(F)F)c2)[C@@H]2C=C[C@H]1C2 (racemic)
85
COc1cc(F)c(OC2CCC(C)(C(=O)O)CC2)cc1C(=O)NC1C2CCC(CC2)C1C(=O)NCC1(C)CCC1 (single isomer, unassigned) [Example 543]
88
COc1cc(C#N)c(O[C@H]2CC[C@@](C)(C(=O)O)CC2)cc1C(=O)N[C@@H]1[C@H]2CC[C@H](C2)[C@@H]1C(=O)NCC1(F)CCCC1
122
CCC(CC)[C@H](C)NC(=O)[C@H]1[C@@H]2CC[C@@H](C2)[C@H]1NC(=O)c1cc(O[C@H]2CC[C@@](C)(C(=O)O)CC2)c(F)cc1OC (single isomer, unassigned)
106
COc1cc(C#N)c(O[C@H]2CC[C@@](C)(C(=O)O)CC2)cc1C(=O)N[C@@H]1[C@H]2CC[C@H](C2)[C@@H]1C(=O)NCC1(F)CCC1
111

###

- test_system: human RXFP1 (Homo sapiens)
- assay_method_text: RXFP1 Hu cAMP (Test A)
- Type: cell-based
- Set-up: expressed in transfected cells; host or cells: Jump-In T-REx CHO-K1 cells (ThermoFisher), induced with 10 ng/ml doxycycline for 24 h
- test_parameters: RXFP1 Hu cAMP
experimental_endpoint: Test A Sinf (%)

COc1cc(F)c(O[C@H]2CC[C@@H](C(=O)O)CC2)cc1C(=O)N[C@@H]1[C@H]2CC[C@H](C2)[C@@H]1C(=O)Nc1cc(C(F)(F)F)ccn1
83
COc1cc(F)c(O[C@H]2CC[C@@](CO)(C(=O)O)CC2)cc1C(=O)NC1C2CCC(C2)C1C(=O)Nc1cccc(S(=O)(=O)C(F)(F)F)c1 (single isomer, unassigned)
106
COc1cc(C#N)c(O[C@H]2CC[C@@](C)(C(=O)O)CC2)cc1C(=O)Nc1cc(Cl)ccc1C(=O)NC12CC(C1)C2
170
COc1ccc(Oc2cccc(C(=O)O)c2)cc1C(=O)N[C@H]1[C@@H](C(=O)Nc2cccc(S(=O)(=O)C(F)(F)F)c2)[C@@H]2C=C[C@H]1C2 (racemic)
80
COc1cc(F)c(-c2ccc(C(=O)O)c(C)c2)cc1C(=O)N[C@@H]1[C@H]2CC[C@H](C2)[C@@H]1C(=O)Nc1cccc(S(=O)(=O)C(F)(F)F)c1
85
